Origin of values: ChEMBL document CHEMBL5661955

protocol.notes: Functional assay to measure dose dependent changes in cell viability from drug treatment in Vero E6 miRFP670 cells (cotreated with P-gp inhibitor, CP100356) that are infected with Dengue virus type 2 New Guinea C. […] Cytotoxicity is reported via via analysis of DAPI count using high-content imager. The assay has been performed by KU Leuven.
Assay type: toxicity, cell-based, Vero C1008
cond: chlorocebus sabaeus, with CP100356 (P-gp inhibitor, concentration not stated); p-gp concentration 500 nM
We label by threshold. Values of CC50 strictly beneath 20 µM are fulfilled. Values of 20 µM and up are not fulfilled.

{"columns": ["sample.smiles", "group.label"],
 "data": [
  ["CC(C)CNC(=O)[C@H](Nc1ccc2c(c1)CNC2)c1cc(Cl)cc2[nH]ncc12", "fulfilled"],
  ["CCOc1cccc(-c2ccc(S(=O)(=O)Nc3ccc(Cl)cc3C(=O)O)cc2C)c1", "not fulfilled"],
  ["CN(C)C(=O)c1cc(CN)cc([C@@H]2C[C@H]2c2cc(Cl)cc(NC(=O)OCc3ccccc3)c2)c1", "fulfilled"],
  ["O=C(O)c1cc(Cl)c(F)cc1S(=O)(=O)Nc1ccc(Oc2ccccc2Cl)cc1", "not fulfilled"],
  ["O=C(Nc1ccc2c(c1)CNC2)c1cc(F)cc2[nH]c(-c3cnc(C4CC4)o3)nc12", "fulfilled"],
  ["O=C(Nc1ccc2c(c1)CNC2)c1cc(Cl)cc2[nH]c(-c3ccnn3C3CC3)nc12", "fulfilled"],
  ["O=C(Nc1ccc2c(c1)CNC2)c1cc(Br)cc2[nH]c([C@H]3CCOC3)nc12", "fulfilled"],
  ["COc1cccc(-c2nc3c(C(=O)Nc4ccc5c(c4)CNC5)cc(F)cc3[nH]2)c1", "fulfilled"],
  ["Cc1cccc(-c2nc3c(C(=O)Nc4ccc5c(c4)CNC5)cc(F)cc3[nH]2)c1", "fulfilled"],
  ["O=C(Nc1cc2c(c(C3=CC[C@H](O)CC3)c1)CNC2)c1cc(Cl)cc2[nH]ncc12", "not fulfilled"],
  ["O=C(Nc1ccc2c(c1)CNC2)c1cc(F)cc(-c2cn[nH]c2)c1", "not fulfilled"],
  ["CCc1cc(Br)cc2c(Cc3ccc(-c4nnn[nH]4)cc3)c[nH]c12", "not fulfilled"],
  ["O=C(Nc1cc(Cl)cc(C(=O)Nc2cccc(C3CCNCC3)c2)c1)OCc1ccccc1", "fulfilled"],
  ["O=C(NCc1ccc(F)cc1)[C@H](Nc1ccc2c(c1)CNC2)c1cc(Cl)cc2[nH]ncc12", "not fulfilled"],
  ["O=C(Nc1cc(Cl)cc(C(=O)Nc2ccc(-n3nn[nH]c3=O)cc2)c1)OCc1ccccc1", "not fulfilled"],
  ["N#Cc1cccc(-c2nc3c(C(=O)Nc4ccc5c(c4)CNC5)cc(Cl)cc3[nH]2)c1", "not fulfilled"],
  ["NCc1ccc([C@H]2C[C@@H]2c2cc(Cl)cc(NC(=O)OCc3ccccc3)c2)cc1", "fulfilled"],
  ["O=C(Nc1ccc2c(c1)CNC2)c1cc(F)c2[nH]ccc2c1", "not fulfilled"],
  ["O=C(Nc1ccc2c(c1)CNC2)c1cc(Br)cc2[nH]c(-c3ccccc3)nc12", "fulfilled"],
  ["O=C(NC1CCOCC1)[C@H](Nc1ccc2c(c1)CNC2)c1cc(Cl)cc(C2CC2)c1", "not fulfilled"],
  ["O=C(Nc1ccc2c(c1)CNC2)c1cc(Br)cc2c1nc1n2CCCC1", "fulfilled"],
  ["Cn1cc2cc(Cl)cc(C(=O)Nc3ccc4c(c3)CNC4)c2n1", "fulfilled"],
  ["O=C(Nc1cc(Cl)cc(C(=O)Nc2ccc(C3CCNCC3)cc2)c1)OCc1ccccc1", "fulfilled"],
  ["CC1=C(c2cc(NC(=O)c3cc(Cl)cc4[nH]ncc34)cc3c2CNC3)CCC1=O", "not fulfilled"],
  ["O=C(NC[C@H]1CCCO1)[C@H](Nc1ccc2c(c1)CNC2)c1cc(Cl)cc(C2CC2)c1", "not fulfilled"],
  ["CCCNC(=O)[C@H](Nc1cccc(-c2nn[nH]n2)c1)c1cc(Cl)cc(NC(=O)OCc2ccccc2)c1", "not fulfilled"],
  ["O=C1Cc2c(cc(Br)cc2C(=O)Nc2ccc3c(c2)CNC3)N1", "not fulfilled"],
  ["C=CC[C@H](Nc1cc(Cl)cc(NC(=O)OCc2ccccc2)c1)c1ccc(-c2nn[nH]n2)cc1", "fulfilled"],
  ["O=C(Nc1cc(Cl)cc(-c2ccc3[nH]c(C(=O)O)cc3c2)c1)OCc1ccccc1", "not fulfilled"],
  ["O=C(Nc1ccc2c(n1)CNC2)c1cc(Cl)cc2[nH]ncc12", "not fulfilled"],
  ["O=C(NC1CCOCC1)[C@H](Nc1ccc2c(c1)CNC2)c1cc(Cl)cc2[nH]ncc12", "not fulfilled"],
  ["CC(C)c1nc2c(C(=O)Nc3ccc4c(c3)CNC4)cc(Br)cc2[nH]1", "fulfilled"],
  ["NCc1ccc(-c2csc3cc(C(=O)Nc4ccc5c(c4)CNC5)ccc23)cc1", "fulfilled"],
  ["COc1cccc(-c2ccc([C@@H](NC(=O)OCc3ccccc3)C(=O)Nc3cccc(CN)c3)cc2)c1", "not fulfilled"],
  ["O=C(Nc1ccc2c(c1)CNC2)c1cccc2[nH]ncc12", "fulfilled"]
]}
